Every entry's value here was drawn from patent US6737383B1.

Test system: morningglory
Assay: Test B pre/postemergence morningglory
Type: in vivo, Ipomoea hederacea
Conditions: Preemergence, Rate 500 g/ha; scale of 0 to 10 where 0 is no effect and 10 is complete control
So I've got a bunch of molecules here, and I need their Morningglory plant response rating values.
Kindly provide the number alone.

Could you tell me which Morningglory plant response rating is on file for CC(C)N(C(=O)n1oc(=O)n(C(C)C(=O)c2ccccc2)c1=O)c1ccccc1 (centres unmarked) [Compound 570] ?
0

And what about the molecule CC(C)N(C(=O)n1oc(=O)n(CC(=O)N(C)C)c1=O)c1ccc(F)cc1 [Compound 586] ?
4

Repeat for the following molecule: CC(C)N(C(=O)n1oc(=O)n(CCC2OCCO2)c1=O)c1ccccc1 [Compound 560]
3

Would you mind doing CCN(C(=O)n1oc(=O)n(Cc2ccco2)c1=O)C1CCCCC1 [Compound 312] as well?
0

Also need CCOc1nc(C(F)(F)F)c(Cn2c(=O)on(C(=O)N(c3ccccc3)C(C)C)c2=O)s1 [Compound 379] , thanks.
0

---

Could you please report measured Plant response rating, Crabgrass for the items listed next?
Test system: crabgrass
Assay: Test B pre/postemergence crabgrass
Format: in vivo, Digitaria sanguinalis
Conditions: Preemergence, Rate 250 g/ha; scale of 0 to 10 where 0 is no effect and 10 is complete control
Protocol: […] At the same time, these crop and weed species were also treated with postemergence applications of test chemicals formulated in the same manner. […] Treated plants and controls were maintained in a greenhouse for twelve to sixteen days, after which all species were compared to controls and visually evaluated. […]
Write the value as a bare number.

I would be grateful if you could share the reported Plant response rating, Crabgrass for CCN(CC)C(=O)n1oc(=O)n(-c2c(C)cccc2C)c1=O [Compound 2] .
0

Let us now turn to COc1ccc(-n2c(=O)on(C(=O)N(c3ccc(F)cc3F)C(C)C)c2=O)c(OC)c1 [Compound 32]
9

Thanks! And CC(C)N(C(=O)n1oc(=O)n(Cc2ccccc2)c1=O)c1ccc(F)cc1F [Compound 79] ?
9

Same lookup for CCN(Cc1ccccc1)C(=O)n1oc(=O)n(-c2c(C)cccc2C)c1=O [Compound 70] , please.
0

Could you do the same for CC(C)N(C(=O)n1oc(=O)n(Cc2ccccc2)c1=O)c1ccc(F)cc1 [Compound 78] , please?
9

Consider next the compound CC(C)N(C(=O)n1oc(=O)n(-c2cnn(C)c2Cl)c1=O)c1ccc(F)cc1 [Compound 97] in the same way.
1

What would you report for Cc1cccc(C(C)C)c1-n1c(=O)on(C(=O)N(c2ccc(F)cc2)C(C)C)c1=O [Compound 65] ?
4

---

So I've got a bunch of molecules here, and I need their Plant response rating (0 to 10; 0 is no effect, 10 is complete control), Rape values.
Tested on: rape
Test: Test B pre/postemergence rape
Type: in vivo, Brassica napus
Details: Rate 250 g/ha; Postemergence
Please state the value as a number alone, without comment.

Entry under review: C=CCn1c(=O)on(C(=O)N(c2ccc(F)cc2)C2CCCCCC2)c1=O [Compound 249] . Reported Plant response rating (0 to 10; 0 is no effect, 10 is complete control), Rape?
0

What do you have for CON=C(Cn1c(=O)on(C(=O)N(c2ccc(F)cc2)C(C)C)c1=O)C(F)(F)F [Compound 227] ?
0

Same question, CC(C)N(C(=O)n1oc(=O)n(Cc2ccco2)c1=O)c1ccc(Cl)cc1 [Compound 206] this time
0

Also CC(C)=CCCC(C)=CCn1c(=O)on(C(=O)N(c2ccc(F)cc2)C(C)C)c1=O [Compound 262] , if possible.
0

Try the molecule CC(C)N(C(=O)n1oc(=O)n([C@H](C)c2ccccc2)c1=O)c1ccc(F)cc1F [Compound 238]
4

---

System: wild oat
Experiment: Test B pre/postemergence wild oat
Type: in vivo, Avena fatua
Conditions: Rate 62 g/ha, Postemergence; scale 0 to 10 (0 no effect, 10 complete control)
value.type: Wild oats plant response rating
The reply should be a number, written without any unit.

Entry under review: "COCn1c(=O)on(C(=O)N(c2ccc(F)cc2)C(C)C)c1=O" . Reported Wild oats plant response rating?
0

Try this compound next: C=CC(CC)n1c(=O)on(C(=O)N(c2ccccc2)C(C)C)c1=O (stereo not drawn)
0

And what about the compound "CCCCCn1c(=O)on(C(=O)N(c2ccc(F)cc2)C(C)C)c1=O" ?
0

Same lookup for "Cc1ccccc1-n1c(=O)on(C(=O)N(c2ccc3c(c2)CCC3)C(C)C)c1=O" , please.
0

Lookup "CC(C)N(C(=O)n1oc(=O)n(CC(=O)N(C)C)c1=O)c1ccc(F)cc1F"
0

Then this compound: "CC(C)C(=O)Cn1c(=O)on(C(=O)N(c2ccccc2)C(C)C)c1=O"
0

---

Test system: corn
Experiment: Test B pre/postemergence corn
Format: in vivo, Zea mays
Conditions: Postemergence, Rate 125 g/ha; scale of 0 to 10 where 0 is no effect and 10 is complete control
value.type: Corn plant response rating

Entry "CC(C)N(C(=O)n1oc(=O)n(N(C)C)c1=O)c1ccc(F)cc1" , system corn: what Corn plant response rating was measured?
0

What do you get for COC1CCC(Cn2c(=O)on(C(=O)N(c3ccc(Cl)cc3)C(C)C)c2=O)=NO1 (stereo not shown) ?
0

Moving on to "CC(C)N(C(=O)n1oc(=O)n([C@@H](C)c2ccccc2)c1=O)c1ccc(Cl)cc1"
0

What would you report for "CC(C)N(C(=O)n1oc(=O)n(-c2cnn(C)c2)c1=O)c1ccccc1" ?
0

---

Give Plant response rating, Goosegrass for every item shown.
Tested on: goosegrass
Assay: Test D goosegrass
Type: in vivo, Eleusine indica
Settings: Rate 125 g/ha, Preemergence; 0 to 100 scale, 0 no injury, 100 complete control
Enter a number only.

# get_value(readout='Plant response rating, Goosegrass', item= "COc1ccccc1-n1c(=O)on(C(=O)N(c2ccc(F)cc2)C(C)C)c1=O" )
85

Would you mind doing "CC(C)N(C(=O)n1oc(=O)n(Cc2ccccc2)c1=O)c1ccc(F)cc1" as well?
98

Record: "CC(C)N(C(=O)n1oc(=O)n(C2CC2)c1=O)c1ccc(F)cc1"
100

Now try "CC(C)N(C(=O)n1oc(=O)n(C)c1=O)c1ccc(F)cc1" .
100

---

Test system: crabgrass
Test: Test B pre/postemergence crabgrass
Format: in vivo, Digitaria sanguinalis
Conditions: Postemergence, Rate 125 g/ha; scale 0 to 10, 0 is no effect, 10 is complete control
Exercise: state measured Crabgrass plant response rating for each of the compounds provided.
# respond with the number and nothing more

// returns reported Crabgrass plant response rating for input "CC(C)N(C(=O)n1oc(=O)n(CC2=NCCO2)c1=O)c1ccccc1"
0

"Cc1noc(C)c1Cn1c(=O)on(C(=O)N(c2ccccc2)C(C)C)c1=O" ?
0

CC(C)N(C(=O)n1oc(=O)n(C(C)C(=O)N(C)C)c1=O)c1ccc(F)cc1F (stereo not shown) ?
2

Can you check "CC(C)N(C(=O)n1oc(=O)n(CC2OCCO2)c1=O)c1ccc(F)cc1F" next?
8

---

Hi there, I'd appreciate the recorded Crabgrass plant response rating for every entry that follows.
Test system: crabgrass
Assay: Test B pre/postemergence crabgrass
Assay type: in vivo, Digitaria sanguinalis
Conditions: Postemergence, Rate 62 g/ha; scale of 0 to 10, 0 is no effect, 10 is complete control
Lab note: record just the number, no unit beside it.

# lookup: Crabgrass plant response rating of "CC(C)N(C(=O)n1oc(=O)n(CCC(F)(F)F)c1=O)c1ccc(F)cc1F"
6

Now consider "CC(C)N(C(=O)n1oc(=O)n(CCC2OCCO2)c1=O)c1ccccc1" and answer again.
0

"CCC=CCn1c(=O)on(C(=O)N(c2ccc(Cl)cc2)C(C)C)c1=O" ?
3

What about this compound? CC(C)N(C(=O)n1oc(=O)n(C(C)C(=O)c2ccccc2)c1=O)c1ccccc1 (stereo not shown)
0

---

Tested on: pigweed
Test: Test B pre/postemergence pigweed
Type: in vivo, Amaranthus retroflexus
Conditions: Preemergence, Rate 500 g/ha; scale 0 to 10, 0 is no effect, 10 is complete control
Protocol: […] At the same time, these crop and weed species were also treated with postemergence applications of test chemicals formulated in the same manner. […] Treated plants and controls were maintained in a greenhouse for twelve to sixteen days, after which all species were compared to controls and visually evaluated. […]
value.type: Redroot pigweed plant response rating
Just the number, please, no unit attached.

Query: Redroot pigweed plant response rating; subject: "CC(C)C(=O)Cn1c(=O)on(C(=O)N(c2ccccc2)C(C)C)c1=O"
9

Try this compound too: "CCOC(=O)C=C(Cn1c(=O)on(C(=O)N(c2ccc(F)cc2)C(C)C)c1=O)OCC"
8

Input CC(C)N(C(=O)n1oc(=O)n(C(C)C(=O)N(C)C)c1=O)c1ccc(F)cc1 (stereo not shown)
10

Repeat with "CC(C)N(C(=O)n1oc(=O)n(CC(=O)N(C)C)c1=O)c1ccc(F)cc1F"
10
